assay info: budding yeast growth changes without added modifier – OD600, strain BY4716, 24 h, basal condition, primary screen (AID 1173)
settings: S. cerevisiae BY4716 growth, OD600, 24 h, called active from +8 up or from −8 down unless noted
Calls of active or inactive are those of the source.
Outcomes: active, inactive

> print(dat)
                                    compound  class.assignment
 1  COC(=O)[C@@]1(Cc2ccccc2)[C@H]2c3cc(C(=O)N(C)C)[nH]c3C[C@H]2CN1C(=O)c1ccccc1          inactive
 2  CCCc1cc2c(n1Cc1ccco1)C(C)C1CN(C(=O)c3ccccc3)C(C)(C(=O)OC)C21 (stereo unspecified)          inactive
 3  COC(=O)[C@H]1C(=O)c2ccccc2O[C@@](C(=O)OC)(c2ccccc2)[C@@H]1c1ccccc1          inactive
 4  COC(=O)[C@H]1[C@@H](O)[C@@]2(O)c3c(OC)cc(OC)cc3O[C@@]2(c2ccc(OC)cc2)[C@@H]1c1ccccc1          inactive
 5  CCCc1cc2c(n1CCO)C(C)C1CN(C(=O)c3ccccc3)C(C)(C(=O)OC)C21 (stereo unspecified)          inactive
 6                   CN1CCc2nc(CO)c(CO)cc2C1          inactive
 7  C=C(CC1(C(C)NP(=O)(c2ccccc2)c2ccccc2)CC1)c1ccccc1 (stereo unspecified)            active
 8  CCCC=C(CCC)[C@@H](NP(=O)(c1ccccc1)c1ccccc1)c1ccccc1          inactive
 9  C[C@@H]1OC=C2[C@@H](O)[C@H]3O[C@H]3C(=O)[C@]23[C@H]1[C@H]1C2=C([C@@H](O)[C@H]4O[C@H]4C2=O)[C@@H]3O[C@@H]1C          inactive
10  O=P(c1ccccc1)(c1ccccc1)N1CC2(CC2)CC(O)(c2ccccc2)C1 (stereo unspecified)          inactive
11  OCc1ccc(C2=CC(C3CC3)N(Cc3sc4ccccc4c3Cl)CC2)cc1 (stereo unspecified)          inactive
12           C[C@@H]1Cc2c(cnc3c2CN(C)CC3)CO1          inactive
13  COC(=O)NCC=Cc1nc(CCC=CC(=O)O[C@H]2CC3CC(=O)O[C@@H](C=CCC(C)C)C[C@@H]4CC[C@H](C)[C@@H](C[C@@H](OC)C[C@H](C2)O3)O4)co1          inactive
14  COC(=O)[C@@]1(Cc2ccc(F)cc2)[C@H]2c3cc(C(=O)N(C)C)[nH]c3C[C@H]2CN1C(=O)c1ccccc1          inactive
15  CN1CCC(c2ccc(CO)cc2)=CC1C1CC1 (stereo unspecified)          inactive
16  C[C@H]1O[C@H]2C3=C(C(=O)[C@@H]4O[C@@H]4[C@@H]3O)[C@@H]1[C@@H]1[C@@H](C)OC=C3[C@@H](O)[C@H]4O[C@H]4C(=O)[C@]312          inactive

----------
assay info: forskolin-driven CRE-LacZ activity in PC12 – cell-based, CRE-LacZ reporter, forskolin-stimulated, primary screen (AID 1146);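 also: PC12 cells with 6xCRE LacZ reporter stimulated by forskolin 10 µM; beta-galactosidase reporter signal reflecting CREB driven transcription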
settings: luminescence, 4.5 h; higher = more signal, called active from +8 up or from −8 down unless noted
The source made the active and inactive calls.
measurement kind: z-score

> print(dat)
                                   compound                         measured.result
1  CCCc1cc2c(n1Cc1ccco1)C(C)C1CN(C(=O)c3ccccc3)C(C)(C(=O)OC)C21 (centres undefined)                        0.718 (inactive)
2          CCc1cc2c(nc1CC)CCN(CCC(C)=NOC)C2                        -0.26 (inactive)
3  OCc1ccc(C2=CC(C3CC3)N(Cc3sc4ccccc4c3Cl)CC2)cc1 (centres undefined)                        -2.05 (inactive)
4  CCCc1cc2c(n1CCO)C(C)C1CN(C(=O)c3ccccc3)C(C)(C(=O)OC)C21 (centres undefined)                        0.444 (inactive)
5  COC(=O)[C@@]1(Cc2ccc(F)cc2)[C@H]2c3cc(C(=O)N(C)C)[nH]c3C[C@H]2CN1C(=O)c1ccccc1  -0.0669 [setting not given] (inactive)
6  CCCc1cc2c(n1Cc1ccc(C)cc1)C(C)C1CN(C(=O)c3ccccc3)C(C)(C(=O)OC)C21 (centres undefined)                         1.57 (inactive)
7  COC(=O)[C@H]1[C@@H](O)[C@@]2(O)c3c(OC)cc(OC)cc3O[C@@]2(c2ccc(OC)cc2)[C@@H]1c1ccccc1                         1.43 (inactive)
8  O=P(c1ccccc1)(c1ccccc1)N1CC2(CC2)CC(O)(c2ccccc2)C1 (centres undefined)                       -0.927 (inactive)
9  COC(=O)[C@H]1C(=O)c2ccccc2O[C@@](C(=O)OC)(c2ccccc2)[C@@H]1c1ccccc1                         1.24 (inactive)

----------
assay info: growth of efflux-deficient E. coli DRC39 – strain DRC39, OD650, 24 h, E. coli filamentation inducers, primary screen (AID 1178);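 also: growth measured as culture turbidity by optical density at 650 nm; test concentration not given here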
settings: E. coli DRC39 acrAB; higher = more signal, called active from +8 up or from −8 down unless noted
Assign class by z-score: not lower than -0.03 means true (1); lower than -0.03 means false (0).

> print(dat)
                                   compound  class.assignment
1  C[C@H]1O[C@H]2C3=C(C(=O)[C@@H]4O[C@@H]4[C@@H]3O)[C@@H]1[C@@H]1[C@@H](C)OC=C3[C@@H](O)[C@H]4O[C@H]4C(=O)[C@]312          true (1)
2          CCc1cc2c(nc1CC)CCN(CCC(C)=NOC)C2         false (0)
3  COC(=O)[C@H]1[C@@H](O)[C@@]2(O)c3c(OC)cc(OC)cc3O[C@@]2(c2ccc(OC)cc2)[C@@H]1c1ccccc1          true (1)
4  CCCc1cc2c(n1CCO)C(C)C1CN(C(=O)c3ccccc3)C(C)(C(=O)OC)C21 (centres undefined)         false (0)
5  C=C(CC1(CNP(=O)(c2ccccc2)c2ccccc2)CC1)c1ccccc1         false (0)
6  COC(=O)[C@@]1(Cc2ccccc2)[C@H]2c3cc(C(=O)N(C)C)n(C)c3C[C@H]2CN1C(=O)c1ccccc1          true (1)
7  COC(=O)[C@H]1C(=O)c2ccccc2O[C@@](C(=O)OC)(c2ccccc2)[C@@H]1c1ccccc1          true (1)
8                COc1cc2c(cc1O)C=[N+](C)CC2          true (1)

----------
assay info: small molecules captured by biotinylated probe aFSTL3 – biochemical, small-molecule microarray, fluorescence 635/667, stem cell growth factor project, primary screen (AID 1064);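 also: measures binding of the biotinylated anti-FSTL3 antibody to printed compounds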
settings: higher = more signal; small-molecule microarray, probe aFSTL3, fluorescence unless noted
measurement kind: composite z-score

> print(dat)
                                   molecule   measurement.kind  measured.result
1  CCCc1cc2c(n1Cc1ccco1)C(C)C1CN(C(=O)c3ccccc3)C(C)(C(=O)OC)C21 (stereo not given)  composite z-score             1.03
2  CN1CCC(c2ccc(CO)cc2)=CC1c1cccs1 (stereo not given)  composite z-score           -0.182
3  CN1CCC(c2ccc(CO)cc2)=CC1C1CC1 (stereo not given)  composite z-score           -0.394
4  CCCC[C@@H]1C[C@H]1[C@@H](NP(=O)(c1ccccc1)c1ccccc1)c1ccc(Cl)cc1  composite z-score             1.68
5  COC(=O)[C@@]1(Cc2ccccc2)[C@H]2c3cc(C(=O)N(C)C)n(C)c3C[C@H]2CN1C(=O)c1ccccc1  composite z-score            0.739
6  COC(=O)[C@H]1[C@H](c2ccccc2)C(=O)[C@]2(O)c3ccccc3O[C@@]12c1ccccc1  composite z-score           -0.521
7  COC(=O)[C@@]1(Cc2ccccc2)[C@H]2c3cc(C(=O)N(C)C)[nH]c3C[C@H]2CN1C(=O)c1ccccc1  composite z-score            0.469
8  O=P(c1ccccc1)(c1ccccc1)N1CC2(CC2)CC(O)(c2ccccc2)C1 (stereo not given)  composite z-score            0.234
9  COC(=O)C1(C)C=C2C(=C(C)C(=O)C2C)CN1 (stereo not given)  composite z-score             1.28

----------
assay info: compound effects on multiple myeloma cell viability – MM1S, calcein-AM fluorescence, 48 h, basal, profiling panel (AID 1165);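 also: viability of MM1S multiple myeloma cells under basal unstimulated conditions; test concentration not given here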
settings: higher = more signal
measurement kind: z-score

> print(dat)
                                   compound  measurement.kind  measured.result
1  COC(=O)C1(C)C=C2C(=C(C)C(=O)C2C)CN1 (centres undefined)           z-score            0.224
2  COC(=O)[C@H]1[C@@H](O)[C@@]2(O)c3c(OC)cc(OC)cc3O[C@@]2(c2ccc(OC)cc2)[C@@H]1c1ccccc1           z-score            -3.46
3  COC(=O)[C@@]1(Cc2ccccc2)[C@H]2c3cc(C(=O)N(C)C)[nH]c3C[C@H]2CN1C(=O)c1ccccc1           z-score            0.047
4  COC(=O)[C@@]1(Cc2ccccc2)[C@H]2c3cc(C(=O)N(C)C)n(C)c3C[C@H]2CN1C(=O)c1ccccc1           z-score           0.0394
